Sourced from patent US11345725B2

Kindly state helicity for each of the entries shown.
test: circular dichroism; details: deionized water; pH unbuffered; 20 °C; 25 uM
Starred links: 1 amine or outer side, 2 acyl side, 3 side chain; linkers in the order of their positions; H or OH if unused. Positions of bridges follow the written chain, without caps; N, C: chain ends. Residues, ends and D or L forms follow the SMILES beside them. X4 = C(CCC[*:2])CC[*:1]; X2 = C(CC[*:1])CC[*:2]
One number for each entry, in %.

Hi! Can you tell me helicity for each of these molecules?
1. CC[C@H](C)[C@H](NC(=O)[C@@H]1CSCCCCCCSC[C@H](NC(=O)[C@@H](NC(=O)[C@@H](NC(C)=O)C(C)C)[C@@H](C)CC)C(=O)N[C@@H](CCC(=O)O)C(=O)N[C@@H](CCC(=O)O)C(=O)N[C@@H](Cc2ccc(O)cc2)C(=O)N1)C(=O)N[C@@H](Cc1c[nH]c2ccccc12)C(=O)N[C@@H](CCCCN)C(=O)N[C@@H](CCCCN)C(=O)N[C@@H](CC(N)=O)C(=O)N[C@H](C(=O)N1CCC[C@H]1C(=O)N[C@@H](Cc1ccccc1)C(=O)N[C@@H](CC(C)C)C(N)=O)[C@@H](C)O (Ac-VICEEYCIWKKNTPFL-NH2; linker 3-7 via X4)
2. CC[C@H](C)[C@H](NC(=O)[C@@H]1CSCCCCCSC[C@H](NC(=O)[C@@H](NC(=O)[C@@H](NC(C)=O)C(C)C)[C@@H](C)CC)C(=O)N[C@@H](CCC(=O)O)C(=O)N[C@@H](CCC(=O)O)C(=O)N[C@@H](Cc2ccc(O)cc2)C(=O)N1)C(=O)N[C@@H](Cc1c[nH]c2ccccc12)C(=O)N[C@@H](CCCCN)C(=O)N[C@@H](CCCCN)C(=O)N[C@@H](CC(N)=O)C(=O)N[C@H](C(=O)N1CCC[C@H]1C(=O)N[C@@H](Cc1ccccc1)C(=O)N[C@@H](CC(C)C)C(N)=O)[C@@H](C)O (Ac-VICEEYCIWKKNTPFL-NH2; linker 3-7 via X2)
3. CC[C@H](C)[C@H](NC(=O)[C@H](CCC(N)=O)NC(=O)[C@@H](NC(=O)[C@@H]1CSCCCCCSC[C@H](NC(=O)[C@H](CC(C)C)NC(=O)[C@H](Cc2c[nH]c3ccccc23)NC(=O)[C@H](CCC(=O)O)NC(C)=O)C(=O)N[C@@H](CCC(=O)O)C(=O)N[C@@H](CCCCN)C(=O)N[C@@H]([C@@H](C)O)C(=O)N1)[C@@H](C)O)C(=O)N[C@@H](CCC(=O)O)C(=O)N[C@@H](CCC(=O)O)C(=O)N[C@@H](Cc1ccccc1)C(N)=O (Ac-EWLCEKTCTQIEEF-NH2; linker 4-8 via X2)

Result:
[19.4, 11, 19.7]

---

Kindly state helicity for each of the entries shown.
assay: circular dichroism; conditions: deionized water; pH unbuffered; 20 °C; 25 uM
Starred links: 1 amine or outer side, 2 acyl side, 3 side chain; linkers in the order of their positions; H or OH if unused. Positions of bridges follow the written chain, without caps; N, C: chain ends. Residues, ends and D or L forms follow the SMILES beside them. X3 = C(CC[*:2])C[*:1]
Please state the value followed by its unit.

# COMPOUND, helicity
records = [
    ("CC[C@H](C)[C@H](NC(=O)[C@@H]1CSCCCCSC[C@H](NC(=O)[C@@H](NC(=O)[C@@H](NC(C)=O)C(C)C)[C@@H](C)CC)C(=O)N[C@@H](CCC(=O)O)C(=O)N[C@@H](CCC(=O)O)C(=O)N[C@@H](Cc2ccc(O)cc2)C(=O)N1)C(=O)N[C@@H](Cc1c[nH]c2ccccc12)C(=O)N[C@@H](CCCCN)C(=O)N[C@@H](CCCCN)C(=O)N[C@@H](CC(N)=O)C(=O)N[C@H](C(=O)N1CCC[C@H]1C(=O)N[C@@H](Cc1ccccc1)C(=O)N[C@@H](CC(C)C)C(N)=O)[C@@H](C)O (Ac-VICEEYCIWKKNTPFL-NH2; linker 3-7 via X3)", "11.5%"),
]

# ---- query compound ----
Query: Dear colleague, I am looking for the recorded helicity of the following compound: CC[C@H](C)[C@@H]1NC(=O)[C@@H](NC(=O)[C@H](Cc2ccc(O)cc2)NC(=O)[C@H](CCC(=O)O)NC(=O)[C@H](CCC(=O)O)NC(=O)[C@H](CC(N)=O)NC(=O)[C@@H](NC(=O)[C@@H](NC(C)=O)C(C)C)[C@@H](C)CC)CSCCCCSC[C@@H](C(=O)N[C@@H](CC(N)=O)C(=O)N[C@H](C(=O)N2CCC[C@H]2C(=O)N[C@@H](Cc2ccccc2)C(=O)N[C@@H](CC(C)C)C(N)=O)[C@@H](C)O)NC(=O)[C@H](CCCCN)NC(=O)[C@H](Cc2c[nH]c3ccccc23)NC1=O (Ac-VINEEYCIWKCNTPFL-NH2; linker 7-11 via X3)
Result: 16.5%
